molecular target: Recombinant human Syk (amino acids 342-635), GST-Syk kinase fusion protein (Homo sapiens (Human)); assay: In vitro Syk kinase test (Kinase Glo luminescence); details: read-out: SYK Enzyme IC50, GST-Syk 4 nM, ATP remaining after 60 min at room temperature
OUTCOME MEASURE: IC50 (nM)
Numbers only here, please. The scale is nM.

// recorded IC50 for CNC(=O)c1c[nH]c2ccc(Nc3nccc(-c4ccccn4)n3)cc12 [Example 284] : 17.7
